Reported Fold change to WT CD80 values are given for each entry in this list.
- TARGET_OR_SYSTEM: T1, human PD-L1 (human, UniProt Q9NZQ7 19-290)
- T1 construct: whole, on cells; CHO cells stably expressing huPD-L1; also called huPD-L1
- T1 sequence (Q9NZQ7 19-290): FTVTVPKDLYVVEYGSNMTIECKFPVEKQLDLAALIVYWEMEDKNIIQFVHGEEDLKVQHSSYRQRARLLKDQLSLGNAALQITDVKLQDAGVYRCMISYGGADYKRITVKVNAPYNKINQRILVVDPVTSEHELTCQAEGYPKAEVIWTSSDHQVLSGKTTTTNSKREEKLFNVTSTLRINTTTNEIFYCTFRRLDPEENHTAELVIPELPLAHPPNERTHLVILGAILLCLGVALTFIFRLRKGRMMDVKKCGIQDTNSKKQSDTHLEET
- TEST_NAME: flow cytometry MFI relative to WT CD80 IgV-Fc, CHO/huPD-L1 cells, 33.3 nM
Enter your answer as a number in fold; do not include the unit.

# BINDER, Fold change to WT CD80, fold
data = [
    ("variant CD80 IgV-Fc (inert) H18Y/A26P/E35D/M47Y/V68I/A71G/D90G (Fc fusion, not shown: inert human IgG1 Fc) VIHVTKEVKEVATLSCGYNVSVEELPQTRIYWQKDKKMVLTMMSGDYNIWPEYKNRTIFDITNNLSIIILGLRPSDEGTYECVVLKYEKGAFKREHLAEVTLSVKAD", 165),
]

Lab note: next binder to report on.
Recorded Fold change to WT CD80 of variant CD80 IgV-Fc (inert) H18C/A26P/E35D/M47L/V68M/A71G (Fc fusion, not shown: inert human IgG1 Fc) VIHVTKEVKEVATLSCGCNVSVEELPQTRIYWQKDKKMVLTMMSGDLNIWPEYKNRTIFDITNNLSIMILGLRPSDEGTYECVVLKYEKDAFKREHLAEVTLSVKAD , please.
406
